B1: library; a variant is named by its letters at N, in order (parent)
chain: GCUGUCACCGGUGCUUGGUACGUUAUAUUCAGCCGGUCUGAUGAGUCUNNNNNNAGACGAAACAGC

Variants of: B1
protocol_details: normalized RNA/DNA level without ligand (relative to sTRSVctl = 100) (log10 (% of sTRSVctl)); HEK293T overexpressing SLC46A1; higher = less ribozyme self-cleavage, higher mRNA level
recorded_conditions: without (6R,S)-folinic acid; ligand present: no
Kindly supply the reported normalized RNA/DNA level without ligand (log10) values for the records listed here.
Just the number.

Input line: For the variant shown here, UUGCGU , give the reported normalized RNA/DNA level without ligand (log10).
Output line: 1.98

Input line: For the variant shown here, UGUCAC , give the reported normalized RNA/DNA level without ligand (log10).
Output line: 2.03

Input line: For the variant shown here, GGUUUC , give the reported normalized RNA/DNA level without ligand (log10).
Output line: 2.02

Input line: For the variant shown here, UUUCGA , give the reported normalized RNA/DNA level without ligand (log10).
Output line: 2.05

Input line: For the variant shown here, AUUAGA , give the reported normalized RNA/DNA level without ligand (log10).
Output line: 1.97

Input line: For the variant shown here, CUGCGG , give the reported normalized RNA/DNA level without ligand (log10).
Output line: 2.05

Input line: For the variant shown here, GCUAAG , give the reported normalized RNA/DNA level without ligand (log10).
Output line: 1.97

Input line: For the variant shown here, AGAGAU , give the reported normalized RNA/DNA level without ligand (log10).
Output line: 1.98

Input line: For the variant shown here, UUUCGC , give the reported normalized RNA/DNA level without ligand (log10).
Output line: 2.01

Input line: For the variant shown here, AAAUUA , give the reported normalized RNA/DNA level without ligand (log10).
Output line: 1.97

Input line: For the variant shown here, AGCCCA , give the reported normalized RNA/DNA level without ligand (log10).
Output line: 2.04

Input line: For the variant shown here, UAUUAC , give the reported normalized RNA/DNA level without ligand (log10).
Output line: 1.98

Input line: For the variant shown here, ACCCGG , give the reported normalized RNA/DNA level without ligand (log10).
Output line: 2.01

Input line: For the variant shown here, CGCUCA , give the reported normalized RNA/DNA level without ligand (log10).
Output line: 2.05

Input line: For the variant shown here, GACGCU , give the reported normalized RNA/DNA level without ligand (log10).
Output line: 2.05

Input line: For the variant shown here, GAAUGU , give the reported normalized RNA/DNA level without ligand (log10).
Output line: 1.99

Input line: For the variant shown here, CGCAGA , give the reported normalized RNA/DNA level without ligand (log10).
Output line: 2.04

Input line: For the variant shown here, GGAUGG , give the reported normalized RNA/DNA level without ligand (log10).
Output line: 1.95

Input line: For the variant shown here, CUGCGA , give the reported normalized RNA/DNA level without ligand (log10).
Output line: 2.05

Input line: For the variant shown here, GUACUU , give the reported normalized RNA/DNA level without ligand (log10).
Output line: 2.03

Input line: For the variant shown here, CUCUUG , give the reported normalized RNA/DNA level without ligand (log10).
Output line: 2.04

Input line: For the variant shown here, GACUGG , give the reported normalized RNA/DNA level without ligand (log10).
Output line: 2.02

Input line: For the variant shown here, AUAAUC , give the reported normalized RNA/DNA level without ligand (log10).
Output line: 2.02

Input line: For the variant shown here, CGUUUA , give the reported normalized RNA/DNA level without ligand (log10).
Output line: 1.99

Input line: For the variant shown here, CUAAGA , give the reported normalized RNA/DNA level without ligand (log10).
Output line: 2.02

Input line: For the variant shown here, CUAGUA , give the reported normalized RNA/DNA level without ligand (log10).
Output line: 2

Input line: For the variant shown here, CGAGAA , give the reported normalized RNA/DNA level without ligand (log10).
Output line: 1.96

Input line: For the variant shown here, UGUUCC , give the reported normalized RNA/DNA level without ligand (log10).
Output line: 2.05

Input line: For the variant shown here, ACCCCU , give the reported normalized RNA/DNA level without ligand (log10).
Output line: 2

Input line: For the variant shown here, UUUAGC , give the reported normalized RNA/DNA level without ligand (log10).
Output line: 2

Input line: For the variant shown here, CAUUCA , give the reported normalized RNA/DNA level without ligand (log10).
Output line: 1.96

Input line: For the variant shown here, CGACGU , give the reported normalized RNA/DNA level without ligand (log10).
Output line: 1.99

Input line: For the variant shown here, AAACUA , give the reported normalized RNA/DNA level without ligand (log10).
Output line: 1.97

Input line: For the variant shown here, GGGGUU , give the reported normalized RNA/DNA level without ligand (log10).
Output line: 2.01
